Exercise: state measured IC50 for each of the molecules provided.
# Tested System: 50:50 mixture of recombinant mouse PKCα and mouse PKCβ2
# Construct: The enzymes are expressed in Sf9 insect cells from recombinant baculovirus and partially purified on DEAE-cellulose and Sephacryl 200 gel filtration
# Experiment: Protein Kinase C (PKC) screening assay
# Assay type: biochemical
# Run Parameters: Inhibition of Protein Kinase C

Qu. If you can, please state the reported IC50 value of O=Cc1ccc(-c2ccc(-c3ccc[se]3)[se]2)[se]1 .
Ans. 1 × 10^0 μg/ml

Qu. If you can, please state the reported IC50 value of c1csc(-c2ccc(-c3cccs3)[se]2)c1 .
Ans. 1 × 10^0 μg/ml

Qu. If you can, please state the reported IC50 value of c1c[se]c(-c2ccc(-c3ccc[se]3)s2)c1 .
Ans. 1 × 10^0 μg/ml

Qu. If you can, please state the reported IC50 value of c1c[se]c(-c2ccc(-c3ccc[se]3)[nH]2)c1 .
Ans. 6 × 10^0 μg/ml

Qu. If you can, please state the reported IC50 value of c1c[se]c(-c2ccc(-c3ccc[se]3)[se]2)c1 .
Ans. 7 × 10^0 μg/ml

Qu. If you can, please state the reported IC50 value of O=Cc1ccc(-c2ccc(-c3ccc(C=O)[se]3)[se]2)[se]1 .
Ans. 1 × 10^0 μg/ml

Qu. If you can, please state the reported IC50 value of OCc1ccc(-c2ccc(-c3ccc[se]3)s2)[se]1 .
Ans. 2 × 10^0 μg/ml

Qu. If you can, please state the reported IC50 value of OCc1ccc(-c2ccc(-c3ccc[se]3)[se]2)[se]1 .
Ans. 3 × 10^0 μg/ml

Qu. If you can, please state the reported IC50 value of OCc1ccc(-c2ccc(-c3cccs3)[se]2)s1 .
Ans. 50 µg/mL
